- assay.summary: Single dose PK in healthy subjects (Cohorts 1, 2, S1 and S2), plasma
- Format: in vivo, human
- experimental.setup: human, plasma, iv, 134.4 mg, 134.4 mg single IV infusion, healthy subjects; read-out: Cmax Median
- Description: […]
measure.name: Cmax
Number first, unit second.

// lookup Cmax for COC(=O)N1CCC[C@H](NS(C)(=O)=O)[C@@H]1CO[C@H]1CC[C@@H](c2ccccc2)CC1 [Compound A]
314 ng/mL

* * *

- assay.summary: Multiple-dose PK of intravenous Compound A in patients with NT1 (Cohorts B1, B2), plasma
- Format: in vivo, human
- experimental.setup: human, plasma, intravenous, 44 mg; Day 1; read-out: AUClast, Geo Mean
measure.name: AUC(0-t) (µg·h/mL)
Your answer is read as µg·h/mL, so omit the unit and give the number.

// lookup AUC(0-t) for COC(=O)N1CCC[C@H](NS(C)(=O)=O)[C@@H]1CO[C@H]1CC[C@@H](c2ccccc2)CC1
0.682

Values from patent US20220339143A1
